- Tested on: 186277-243-T-J2-PDC spheroids with HUVEC/MSC, viability
- METHOD: Anticancer human tumor 186277-243-T-J2-PDC patient-derived colon adenocarcinoma cell line growth inhibition [CLK]
- TEST_PARAMETERS: second compound 0.1 µM; first compound 0.316 µM; stronger effect = lower value
Collected viability, T/C values appear next to each entry.
Express the result in % but write the number alone.

Solved cases (3 shown):
{"columns": ["COMPOUND", "MEASUREMENT_UNIT", "viability, T/C"],
 "data": [
  ["COc1ccc([C@@H](O)c2cc(-c3ncnc4cc(N5CCOCC5)ccc34)c(F)cc2Cl)nn1 + CNC(=O)c1ccc(Nc2nc(OC3CCCC3)c3c(-c4ccc5nc(C)oc5c4)c[nH]c3n2)c(OC)c1", "%", 50.2],
  ["C=C(F)C(=O)N1CCN(c2nc(OCC3CCCN3C)nc3c2CCN(c2cccc4cccc(Cl)c24)C3)CC1CC#N (stereo not drawn) + CNC(=O)c1ccc(Nc2nc(OC3CCCC3)c3c(-c4ccc5nc(C)oc5c4)c[nH]c3n2)c(OC)c1", "%", 69.8],
  ["Nc1ccccc1NC(=O)c1ccc(CNC(=O)OCc2cccnc2)cc1 + CNC(=O)c1ccc(Nc2nc(OC3CCCC3)c3c(-c4ccc5nc(C)oc5c4)c[nH]c3n2)c(OC)c1", "%", 88]
]}

Here is the next item to consider.
Using the record for CCN1CCN(Cc2ccc(Nc3ncc(F)c(-c4cc(F)c5nc(C)n(C(C)C)c5c4)n3)nc2)CC1 + CNC(=O)c1ccc(Nc2nc(OC3CCCC3)c3c(-c4ccc5nc(C)oc5c4)c[nH]c3n2)c(OC)c1 , report its viability, T/C.
114

----------
- Test system: 186277-243-T-J2-PDC spheroids with HUVEC/MSC, viability
- METHOD: Anticancer human tumor 186277-243-T-J2-PDC cell line growth inhibition [CLK];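 further: compound exposure lasted seven days before readout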
- TEST_PARAMETERS: curve of first compound; second compound 0.0316 µM
pIC50: −log10 of the molar value.
Collected pIC50 values appear next to each entry.

Using the record for CCCS(=O)(=O)Nc1ccc(F)c(C(=O)c2c[nH]c3ncc(-c4ccc(Cl)cc4)cc23)c1F + CNC(=O)c1ccc(Nc2nc(OC3CCCC3)c3c(-c4ccc5nc(C)oc5c4)c[nH]c3n2)c(OC)c1 , report its pIC50.
< 5.00

Using the record for CCN1CCN(Cc2ccc(Nc3ncc(F)c(-c4cc(F)c5nc(C)n(C(C)C)c5c4)n3)nc2)CC1 + CNC(=O)c1ccc(Nc2nc(OC3CCCC3)c3c(-c4ccc5nc(C)oc5c4)c[nH]c3n2)c(OC)c1 , report its pIC50.
< 6.00

Using the record for Nc1ccn(C2OC(CO)C(O)C2(F)F)c(=O)n1 (stereo not given) + CN1CCN(c2cc(C(=O)Nc3cc4cc(-c5cnn(C)c5)ccc4cn3)ccn2)CC1 , report its pIC50.
> 7.50

Using the record for O=c1[nH]cc(F)c(=O)[nH]1 + CNC(=O)c1ccc(Nc2nc(OC3CCCC3)c3c(-c4ccc5nc(C)oc5c4)c[nH]c3n2)c(OC)c1 , report its pIC50.
< 5.00

Using the record for Cn1ncnc1[C@H]1c2n[nH]c(=O)c3cc(F)cc(c23)N[C@@H]1c1ccc(F)cc1 + CNC(=O)c1ccc(Nc2nc(OC3CCCC3)c3c(-c4ccc5nc(C)oc5c4)c[nH]c3n2)c(OC)c1 , report its pIC50.
< 7.00

Using the record for CCN1CCN(Cc2ccc(Nc3ncc(F)c(-c4cc(F)c5nc(C)n(C(C)C)c5c4)n3)nc2)CC1 + CN1CCN(c2cc(C(=O)Nc3cc4cc(-c5cnn(C)c5)ccc4cn3)ccn2)CC1 , report its pIC50.
< 6.00

Using the record for O=C(c1cc(Cc2n[nH]c(=O)c3ccccc23)ccc1F)N1CCN(C(=O)C2CC2)CC1 + CNC(=O)c1ccc(Nc2nc(OC3CCCC3)c3c(-c4ccc5nc(C)oc5c4)c[nH]c3n2)c(OC)c1 , report its pIC50.
< 5.00

Using the record for Cn1ncnc1[C@H]1c2n[nH]c(=O)c3cc(F)cc(c23)N[C@@H]1c1ccc(F)cc1 + CN1CCN(c2cc(C(=O)Nc3cc4cc(-c5cnn(C)c5)ccc4cn3)ccn2)CC1 , report its pIC50.
< 7.00

Using the record for CC(C)CC(NC(=O)C(Cc1ccccc1)NC(=O)c1cnccn1)B(O)O (stereo not given) + CN1CCN(c2cc(C(=O)Nc3cc4cc(-c5cnn(C)c5)ccc4cn3)ccn2)CC1 , report its pIC50.
8.34

Using the record for COC1C=CCC(C)C(C)S(=O)(=O)NC(=O)c2ccc3c(c2)N(CC2CCC21)CC1(CCCc2cc(Cl)ccc21)CO3 (stereo not given) + CNC(=O)c1ccc(Nc2nc(OC3CCCC3)c3c(-c4ccc5nc(C)oc5c4)c[nH]c3n2)c(OC)c1 , report its pIC50.
5.45

Using the record for CC(=O)O[C@H]1C(=O)[C@@]2(C)[C@H]([C@H](OC(=O)c3ccccc3)[C@]3(O)C[C@H](OC(=O)[C@H](O)[C@@H](NC(=O)c4ccccc4)c4ccccc4)C(C)=C1C3(C)C)[C@]1(OC(C)=O)CO[C@@H]1C[C@@H]2O + CN1CCN(c2cc(C(=O)Nc3cc4cc(-c5cnn(C)c5)ccc4cn3)ccn2)CC1 , report its pIC50.
> 7.50

Using the record for CC(C)CC(NC(=O)C(Cc1ccccc1)NC(=O)c1cnccn1)B(O)O (stereo not given) + CNC(=O)c1ccc(Nc2nc(OC3CCCC3)c3c(-c4ccc5nc(C)oc5c4)c[nH]c3n2)c(OC)c1 , report its pIC50.
8.43

Using the record for O=c1[nH]cc(F)c(=O)[nH]1 + CN1CCN(c2cc(C(=O)Nc3cc4cc(-c5cnn(C)c5)ccc4cn3)ccn2)CC1 , report its pIC50.
< 5.00

Using the record for C#Cc1c(F)ccc2cc(O)cc(-c3ncc4c(N5CC6CCC(C5)N6)nc(OCC56CCCN5CC(F)C6)nc4c3F)c12 (stereo not given) + CN1CCN(c2cc(C(=O)Nc3cc4cc(-c5cnn(C)c5)ccc4cn3)ccn2)CC1 , report its pIC50.
6.05

Using the record for O=C(c1cc(Cc2n[nH]c(=O)c3ccccc23)ccc1F)N1CCN(C(=O)C2CC2)CC1 + CN1CCN(c2cc(C(=O)Nc3cc4cc(-c5cnn(C)c5)ccc4cn3)ccn2)CC1 , report its pIC50.
< 5.00
